Listing of entries alongside the reported maximal growth inhibition.
# Tested on: HGGX39 (paediatric high-grade glioma line)
# EXPERIMENTAL_DETAILS: maximal growth inhibition (yFin) relative to DMSO / staurosporine; higher = more efficacious
// units = %; emit number, no label

The examples below pair each entry with its known result.
{"columns": ["SMILES_TEXT", "maximal growth inhibition (%)"],
 "data": [
  ["Cc1sc2c(c1C)C(c1ccc(Cl)cc1)=N[C@@H](CC(=O)Nc1ccc(O)cc1)c1nnc(C)n1-2", 50.6],
  ["COc1cccc2c1C(=O)c1c(O)c3c(c(O)c1C2=O)C[C@@](O)(C(C)=O)C[C@@H]3O[C@H]1C[C@H](N)[C@H](O)[C@H](C)O1", 76.1]
]}

Next item in the queue.
Challenge: Find maximal growth inhibition (HGGX39) for the entry Cc1nc(Nc2ncc(C(=O)Nc3c(C)cccc3Cl)s2)cc(N2CCN(CCO)CC2)n1
Response given: 41.3
